B1: minF1; the commonest letter at each place (parent)
chain: GAGACCGCAACTGAAAAGTTGTTATCAGAAATGGATGGGTTGAATTTCTGCACGTAGAAGCAAAAGGC

- Variants of: B1
- experimentNotes: fraction ligated after 30 min (ligated reads / total reads); higher = more ligase activity
- studyConditions: with F1*subA RNA substrate (template-directed ligation), 42 °C
Collected fraction ligated values appear next to each entry.

mutant | fraction ligated
T23C G37A | 0.00595
T25C A30G | 0.0308
A31C G37C | 0.00598
G37T A43G | 0.00602
